molecular target: Retinaldehyde dehydrogenase 3 (Homo sapiens); test: qHTS for Inhibitors of the Aldehyde Dehydrogenase Family (ALDH1A3) Confirmatory screens (AID 2061311); details: ALDH inhibition qHTS; series mostly up to 46 µM; further: nearly all actives have a fitted effect of over 60% in size; further: potency means the concentration at half of the fitted maximal effect
Records with an inconclusive call do not appear. Activity calls are given as the source filed them. The call rests on the fitted dose curve; in most records, active means well fitted inhibition curve with a large enough effect; inconclusive means small, poorly fitted or top-dose-only effect; inactive means no such curve, though single readings can be large or run the other way.
endpoint: Potency

Example entries begin here.
Cc1cn([C@H]2C[C@H](N[S+](=O)([O-])Cc3ccc(Cl)cc3)[C@@H](CO)O2)c(=O)[nH]c1=O :: inactive
Cc1cnc(-c2ccccc2C(C)C)nc1NCC1CN(c2cccnc2)C1 :: 11.3 µM (active)
CC(=O)N(O)CCCCCN1C(=O)CCC1=O :: inactive
CCOC(=O)c1ccc(O)c2ncc(-c3ccc(C(=N)N)cc3)cc12 :: 10.1 µM (active)
O=c1c(Nc2ccc(Cl)c(Cl)c2)c(Nc2nnc(-c3ccncc3)s2)c1=O :: 11.2 µM (active)

Query string: Identify the reported Potency for the following entry. O=S1(=O)CCN(Cc2cc(NCC3CCOCC3)c3[nH]c(-c4ccccc4)cc3c2)CC1
Result string: 11.3 µM (active)

Query string: Identify the reported Potency for the following entry. COc1ccc2c(c1O)OC[C@H]1c3ccc(O)cc3O[C@@H]21
Result string: 22.5 µM (active)

Query string: Identify the reported Potency for the following entry. Cc1cccc(C[C@H](C(=O)O)N2C(=O)c3ccc(C(=O)O)cc3C2=O)c1
Result string: inactive

Query string: Identify the reported Potency for the following entry. Oc1cc(NCCc2cccnc2)cc2cccnc12
Result string: 0.4 µM (active)

Query string: Identify the reported Potency for the following entry. Cc1ccc(-c2cc(C(=O)N3CCCCC3)c3ccccc3n2)cc1C
Result string: inactive

====

target: Cellular tumor antigen p53 (Homo sapiens) (UniProt P04637); assay: Primary qHTS for small molecule compounds that upregulate eGFP-tagged delta133p53alpha (in N-terminal) cells. (AID 2060322); settings: NCI-H358 eGFP-delta133p53alpha fluorescence, 24 h; hits give high values;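 further: cells pre-induced with doxycycline then dosed without doxycycline; 0% = DMSO vehicle and 100% = reference activator; nearly all actives have a fitted effect of over 75% in size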
Sequence (P04637 whole entry, looked up): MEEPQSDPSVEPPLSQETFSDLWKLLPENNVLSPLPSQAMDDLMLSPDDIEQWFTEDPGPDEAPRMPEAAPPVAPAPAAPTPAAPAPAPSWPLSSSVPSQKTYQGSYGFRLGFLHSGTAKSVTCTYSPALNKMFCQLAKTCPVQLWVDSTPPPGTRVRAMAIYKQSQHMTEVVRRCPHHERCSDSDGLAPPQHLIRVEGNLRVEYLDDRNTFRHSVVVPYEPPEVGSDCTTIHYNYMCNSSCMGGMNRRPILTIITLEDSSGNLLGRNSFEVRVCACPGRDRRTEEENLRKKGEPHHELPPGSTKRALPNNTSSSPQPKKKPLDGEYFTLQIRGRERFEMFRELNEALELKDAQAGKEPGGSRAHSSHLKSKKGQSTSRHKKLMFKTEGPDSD
Results filed as inconclusive are left out.
endpoint: activation (%)
Reply with just the number (in %).

Query string: Identify the reported activation for the following entry. O=C(Nc1cc(C(F)(F)F)ccc1N1CCCCC1)c1ccncc1
Result string: -17.9

Query string: Identify the reported activation for the following entry. Cc1cc(F)ccc1-c1nc(NCCN=C(N)NC#N)nc2c1ccc(=O)n2-c1c(F)cccc1F
Result string: -4.46

Query string: Identify the reported activation for the following entry. C[C@@H]1O[C@@H](O[C@@H]2[C@@H](O)[C@@H](O[C@]3(CO)O[C@H](CO)[C@@H](O)[C@@H]3OC(=O)/C=C/c3ccc(O)cc3)O[C@H](CO)[C@H]2OC(=O)/C=C/c2ccc(O)cc2)[C@H](O)[C@H](O)[C@H]1O[C@@H]1O[C@@H](C)[C@H](O[C@@H]2OC[C@](O)(CO)[C@H]2O)[C@@H](O)[C@H]1O
Result string: -2.68

Query string: Identify the reported activation for the following entry. CC(C)n1c(/C=C/[C@@H](O)C[C@@H](O)CC(=O)O)c(-c2ccc(F)cc2)c2ccccc21
Result string: -1.69

Query string: Identify the reported activation for the following entry. CC(/C=C/C1(O)C(C)(C)CC(O)CC1(C)O)OC1OC(CO)C(O)C(O)C1O (stereo unspecified)
Result string: -5.34

Query string: Identify the reported activation for the following entry. NC(Cc1c[nH]c2ccccc12)C(=O)NC(CCC(=O)O)C(=O)O (stereo unspecified)
Result string: -0.955

Query string: Identify the reported activation for the following entry. O=C(NC/C=C/CN1CCN(c2cccc(Cl)c2Cl)CC1)c1ccc(-c2ccccn2)cc1
Result string: 6.68

Query string: Identify the reported activation for the following entry. CC/C=C\CC1C(=O)C=CC1(CCCCCCCC(=O)O)OC(C)=O (stereo unspecified)
Result string: -22.9

Query string: Identify the reported activation for the following entry. N.N.O=C(O)C1(C(=O)O)CCC1.[Pt+2]
Result string: -8.5

Query string: Identify the reported activation for the following entry. COc1cccc(OC)c1OCCNCC1COc2ccccc2O1 (stereo unspecified)
Result string: 7.71

Query string: Identify the reported activation for the following entry. CC1(C)CC2C(C1)C1(C)CCC13OC3(CO)C2O (stereo unspecified)
Result string: -14.3

Query string: Identify the reported activation for the following entry. CN(C)C(=O)C(=O)c1cn(C)c2cc(Cl)c(C(=O)N3CCC(Cc4ccc(F)cc4)CC3)cc12
Result string: -10.7

Query string: Identify the reported activation for the following entry. C=C1CC[C@H]2[C@@H](/C=C(\C)C(=O)[C@@]3(OC(C)=O)C[C@H](C)[C@H](OC(C)=O)[C@@H]3[C@H]1OC(C)=O)C2(C)C
Result string: -20.6

Query string: Identify the reported activation for the following entry. CC(=O)Nc1cccc(Nc2ncnc(N3CCC(OCc4ccc(OC(F)(F)F)cc4)CC3)n2)c1C
Result string: -6.21

Query string: Identify the reported activation for the following entry. CC(O)(CC(=O)O)CC(=O)O[C@@H]1[C@@H](O)[C@H](OCCc2ccccc2)O[C@H](CO)[C@H]1O (stereo partly specified)
Result string: 3.82

Query string: Identify the reported activation for the following entry. CCCC[C@@]1(C2CCCC2)Cc2cc(OCC(=O)O)c(Cl)c(Cl)c2C1=O
Result string: -7.36

Query string: Identify the reported activation for the following entry. CC(=O)O[C@H]1CC[C@H](C)[C@@]2(C)[C@H](OC(C)=O)c3c(C)coc3C(=O)[C@H]12
Result string: -3.82

Query string: Identify the reported activation for the following entry. C[C@]1(c2nc3c(C(N)=O)cccc3[nH]2)CCCN1
Result string: 53.7

Query string: Identify the reported activation for the following entry. Nc1nc(SCc2ccc([N+](=O)[O-])cc2)c2ncn([C@@H]3O[C@H](CO)[C@@H](O)[C@H]3O)c2n1
Result string: -3.28

Query string: Identify the reported activation for the following entry. CNCCN1CCC(c2cc(CN(C)C(=O)c3cccc(Oc4ccccc4)c3)ccn2)CC1
Result string: -4.33

Query string: Identify the reported activation for the following entry. C[C@@]1(O)[C@H](O)[C@@H](CO)O[C@H]1n1ccc(N)nc1=O
Result string: 0.333

Query string: Identify the reported activation for the following entry. COC1CCC(N(C(=O)C2CCC(C)CC2)c2cc(C3=CCCCC3)sc2C(=O)O)CC1 (stereo unspecified)
Result string: -11.2

Query string: Identify the reported activation for the following entry. Cc1csc(NC(=O)c2ccc(COc3cccc(Cl)c3)o2)n1
Result string: -9.67

Query string: Identify the reported activation for the following entry. COc1ccc(C2COc3cc(O)ccc3C2)c(O)c1OC (stereo unspecified)
Result string: -2.29

Query string: Identify the reported activation for the following entry. C=C1CCC2C(C)(C(=O)O)CCCC2(C)C1CCC1=CCOC1=O (stereo unspecified)
Result string: 31.2

Query string: Identify the reported activation for the following entry. CN1CCN(CCC(=O)N2c3ccccc3Sc3ccc(C(F)(F)F)cc32)CC1
Result string: 18.6

Query string: Identify the reported activation for the following entry. CC(C)(C[C@@](O)(Cc1cc2ccncc2[nH]1)C(F)(F)F)c1cc(F)ccc1O
Result string: 13.4

Query string: Identify the reported activation for the following entry. O=C(/C=C/c1ccc(O)cc1)OC[C@@]1(O)C=C[C@@H]2C(C(=O)O)=CO[C@@H](O[C@@H]3O[C@H](CO)[C@@H](O)[C@H](O)[C@H]3O)[C@@H]21
Result string: -4.46

Query string: Identify the reported activation for the following entry. COc1cc(Nc2ncc3c(n2)-c2ccc(Cl)cc2C(c2c(F)cccc2OC)=NC3)ccc1C(=O)O
Result string: 85.9

Query string: Identify the reported activation for the following entry. O=C(Nc1ccc(-c2ccnc(Nc3ccc(N4CCOCC4)cc3)n2)cc1)C1CCCN1 (stereo unspecified)
Result string: -5.36

Query string: Identify the reported activation for the following entry. Cc1cc(NC2CCCCC2)nc(-n2nc(C)cc2C)n1
Result string: -20.8

Query string: Identify the reported activation for the following entry. CN(C)CCCCCCNC(=O)c1cccc(-c2cc(O)c3ncccc3c2)c1
Result string: 0.333

Query string: Identify the reported activation for the following entry. NC(N)=Nc1nc(CSCCC(N)=NS(N)(=O)=O)cs1
Result string: 11

Query string: Identify the reported activation for the following entry. CC1=CC(=O)C(=C(C)C)CC2C(C)(O)CCC12O (stereo unspecified)
Result string: -8.93

Query string: Identify the reported activation for the following entry. Cc1ccccc1N1CCN(S(=O)(=O)C[C@]23CC[C@H](C[C@@H]2NC(=O)[C@@H](N)CCS(C)(=O)=O)C3(C)C)CC1
Result string: 3.67

Query string: Identify the reported activation for the following entry. C[C@]12CCC3=C4CCC(=O)C=C4CC[C@@H]3[C@H]1CC[C@@]2(O)CC#N
Result string: 7.95

Data credit: PubChem BioAssay (NCATS)
